Tested on: hepatic stage of P. berghei
Experiment: In vitro activity against P. berghei hepatic stages (luciferase-expressing sporozoites in Huh-7 cells, bioluminescence)
Type: cell-based, Plasmodium berghei
Settings: Plasmodium berghei, Huh-7, 48 h; at 1 μM; DMSO = 100; read-out: INFECTION Ø screening
Note to self: use Satisfied only for activity at 1 µM readings below 90%; a reading exactly at 90% still gets Not satisfied.

INSERT INTO assay_data (compound, assigned_category) VALUES
  ('COc1ccc(C(=O)OC2CN3Cc4cc5c(cc4C24C=CC(OC)CC34)OCO5)cc1 (stereo not drawn) [29g, 11-O-(4-methoxybenzoyl)haemanthamine]', 'Satisfied'),
  ('COc1c2c(cc3c1OCO3)[C@]13C=C[C@H](OC)C[C@H]1N(C2)C[C@H]3OC(=O)c1cc(C)cc(C)c1 [28h, 11-O-(3,5-Dimethylbenzoyl)ambelline]', 'Satisfied'),
  ('COc1ccc(C(=O)O[C@@H]2CN3Cc4c(cc5c(c4OC)OCO5)[C@@]24C=C[C@H](OC)C[C@@H]34)cc1OC [28l, 11-O-(3,4-Dimethoxybenzoyl)ambelline]', 'Satisfied'),
  ('COc1ccccc1C(=O)O[C@@H]1CN2Cc3c(cc4c(c3OC)OCO4)[C@@]13C=C[C@H](OC)C[C@@H]23 [28i, 11-O-(2-Methoxybenzoyl)ambelline]', 'Satisfied');

*Q* Given COC1C=CC23c4cc5c(cc4CN(CC2OC(=O)c2cccc(C)c2)C3C1)OCO5 (stereo not drawn) [29c, 11-O-(3-methylbenzoyl)haemanthamine] , is recorded activity at 1 µM strictly lower than 90%?
*A* Not satisfied

====

System: HepG2 cells
Test: Cytotoxicity assessment in vitro (MTT assay)
Format: cell-based
Conditions: human, 24 h, 10 µM
Procedure: HepG2 cells of human hepatocellular carcinoma (ATCC HB-8065; passage 20–25), purchased from Health Protection Agency Culture Collections (ECACC, Salisbury, UK), were cultured in Minimum Essential Medium Eagle supplemented with 10% v/v fetal bovine serum and 1% v/v L-glutamine solution (Sigma-Aldrich, St. Louis, MO, USA) at 37 °C in a humidified atmosphere containing 5% CO2. […] Cytotoxicity of all studied derivatives was screened at 10 μM concentration, and all samples were measured in triplicates. […]
Overview of reported 3. screening of cytotoxic potential, HepG2 cell line across a group of compounds:
// return a plain number; no unit text

INSERT INTO results (compound, test_result) VALUES
  ('COc1c2c(cc3c1OCO3)[C@]13C=C[C@H](OC)C[C@H]1N(C2)C[C@H]3OC(=O)c1ccc(C)c([N+](=O)[O-])c1 [28r, 11-O-(4-Methyl-3-nitrobenzoyl)ambelline]', 69.8),
  ('COc1cc(C(=O)O[C@@H]2CN3Cc4c(cc5c(c4OC)OCO5)[C@@]24C=C[C@H](OC)C[C@@H]34)cc(OC)c1OC [28n, 11-O-(3,4,5-Trimethoxybenzoyl)ambelline]', 54.09);

Please look at the following compound next.
*Q* Please state recorded 3. screening of cytotoxic potential, HepG2 cell line (tested on HepG2 cells) of COc1ccccc1C(=O)O[C@@H]1CN2Cc3c(cc4c(c3OC)OCO4)[C@@]13C=C[C@H](OC)C[C@@H]23 [28i, 11-O-(2-Methoxybenzoyl)ambelline]
*A* 87.77

====

System: hepatic stage of P. berghei
Assay: In vitro activity against P. berghei hepatic stages (luciferase-expressing sporozoites in Huh-7 cells, bioluminescence)
Format: cell-based, Plasmodium berghei
Conditions: Plasmodium berghei, Huh-7, 48 h; at 1 μM; DMSO = 100; read-out: INFECTION Ø screening
Is activity at 1 µM at least 80%? Then y. If not, n.

For orientation, consider the following solved cases.
INSERT INTO results (compound, assigned_category) VALUES
  ('COC1C=CC23c4cc5c(cc4CN(CC2OC(=O)c2ccc([N+](=O)[O-])cc2)C3C1)OCO5 (centres unmarked) [29k, 11-O-(4-nitrobenzoyl)haemanthamine]', 'n'),
  ('CCC(=O)O[C@@H]1CN2Cc3c(cc4c(c3OC)OCO4)[C@@]13C=C[C@H](OC)C[C@@H]23 [28b, 11-O-Propionylambelline]', 'n'),
  ('COc1c2c(cc3c1OCO3)[C@]13C=C[C@H](OC)C[C@H]1N(C2)C[C@H]3OC(=O)c1ccc(Cl)c([N+](=O)[O-])c1 [28t, 11-O-(4-Chloro-3-nitrobenzoyl)ambelline]', 'y'),
  ('COc1c2c(cc3c1OCO3)[C@]13C=C[C@H](OC)C[C@H]1N(C2)C[C@H]3OC(=O)c1cccc([N+](=O)[O-])c1 [28p, 11-O-(3-Nitrobenzoyl)ambelline]', 'n');

We next turn to a different compound, shown below.
*Q* # check: activity at 1 µM of COc1cc(C(=O)O[C@@H]2CN3Cc4c(cc5c(c4OC)OCO5)[C@@]24C=C[C@H](OC)C[C@@H]34)cc(OC)c1OC [28n, 11-O-(3,4,5-Trimethoxybenzoyl)ambelline] is greater than or equal to 80%
*A* n

====

Test system: HepG2 cells
Test: Cytotoxicity assessment in vitro (MTT assay)
Assay type: cell-based
Details: human, 24 h, 10 µM
Note to self: use fulfilled only for Ø screening, HepG2 (sheet Graphs) readings below 90; a reading exactly at 90 still gets not fulfilled.

For orientation, consider the following solved cases.
INSERT INTO measurements (compound, assigned_category) VALUES
  ('COc1c2c(cc3c1OCO3)[C@]13C=C[C@H](OC)C[C@H]1N(C2)C[C@H]3OC(=O)c1ccc([N+](=O)[O-])cc1 [28q, 11-O-(4-Nitrobenzoyl)ambelline]', 'fulfilled'),
  ('COc1c2c(cc3c1OCO3)[C@]13C=C[C@H](OC)C[C@H]1N(C2)C[C@H]3OC(=O)c1ccc(Cl)c([N+](=O)[O-])c1 [28t, 11-O-(4-Chloro-3-nitrobenzoyl)ambelline]', 'fulfilled'),
  ('COc1c2c(cc3c1OCO3)[C@]13C=C[C@H](OC)C[C@H]1N(C2)C[C@H]3OC(=O)c1cccc([N+](=O)[O-])c1 [28p, 11-O-(3-Nitrobenzoyl)ambelline]', 'fulfilled'),
  ('COc1c2c(cc3c1OCO3)[C@]13C=C[C@H](OC)C[C@H]1N(C2)C[C@H]3OC(=O)c1cccc(C)c1 [28f, 11-O-(3-Methylbenzoyl)ambelline]', 'fulfilled'),
  ('COc1c2c(cc3c1OCO3)[C@]13C=C[C@H](OC)C[C@H]1N(C2)C[C@H]3OC(=O)c1ccccc1 [28e, 11-O-Benzoylambelline]', 'not fulfilled');

*Q* Given COc1ccc(C(=O)O[C@@H]2CN3Cc4c(cc5c(c4OC)OCO5)[C@@]24C=C[C@H](OC)C[C@@H]34)cc1OC [28l, 11-O-(3,4-Dimethoxybenzoyl)ambelline] , is recorded Ø screening, HepG2 (sheet Graphs) strictly lower than 90?
*A* not fulfilled

*Q* Given COc1ccccc1C(=O)O[C@@H]1CN2Cc3c(cc4c(c3OC)OCO4)[C@@]13C=C[C@H](OC)C[C@@H]23 [28i, 11-O-(2-Methoxybenzoyl)ambelline] , is recorded Ø screening, HepG2 (sheet Graphs) strictly lower than 90?
*A* fulfilled

*Q* Given COc1c2c(cc3c1OCO3)[C@]13C=C[C@H](OC)C[C@H]1N(C2)C[C@H]3OC(=O)c1ccc(C)c([N+](=O)[O-])c1 [28r, 11-O-(4-Methyl-3-nitrobenzoyl)ambelline] , is recorded Ø screening, HepG2 (sheet Graphs) strictly lower than 90?
*A* fulfilled

====

Test system: HepG2 cells
Assay: Cytotoxicity assessment in vitro (MTT assay)
Assay type: cell-based
Settings: human, 24 h, 10 µM
Overview of reported 3. screening of cytotoxic potential, HepG2 cell line across a group of molecules:
// return a plain number; no unit text

Solved cases (2 shown):
INSERT INTO measurements (molecule, target_entity, test_result) VALUES
  ('COc1c2c(cc3c1OCO3)[C@]13C=C[C@H](OC)C[C@H]1N(C2)C[C@H]3OC(=O)c1cccc(C)c1 [28f, 11-O-(3-Methylbenzoyl)ambelline]', 'HepG2 cells', 74.27),
  ('CCCCC(=O)O[C@@H]1CN2Cc3c(cc4c(c3OC)OCO4)[C@@]13C=C[C@H](OC)C[C@@H]23 [28d, 11-O-Pentanoylambelline]', 'HepG2 cells', 76.88);

Please look at the following molecule next.
*Q* May I ask what 3. screening of cytotoxic potential, HepG2 cell line has been recorded for COc1c2c(cc3c1OCO3)[C@]13C=C[C@H](OC)C[C@H]1[N@](C2)C[C@H]3OC(C)=O [28a, 11-O-Acetylambelline] ?
*A* 110.57

====

Tested on: hepatic stage of P. berghei
Experiment: In vitro activity against P. berghei hepatic stages (luciferase-expressing sporozoites in Huh-7 cells, bioluminescence)
Format: cell-based, Plasmodium berghei
Settings: Plasmodium berghei, Huh-7, 48 h; at 1 μM; DMSO = 100; read-out: INFECTION Ø screening
quantity: activity at 1 µM (%)
Give the number; % is assumed, so skip it.

Solved cases (2 shown):
INSERT INTO results (molecule, target_entity, test_result) VALUES
  ('COc1c2c(cc3c1OCO3)[C@]13C=C[C@H](OC)C[C@H]1N(C2)C[C@H]3OC(=O)c1cccc(C)c1 [28f, 11-O-(3-Methylbenzoyl)ambelline]', 'hepatic stage of P. berghei', 15.1),
  ('COC1C=CC23c4cc5c(cc4CN(CC2OC(=O)C(C)C)C3C1)OCO5 (stereo not drawn) [29b, 11-O-isobutanoylhaemanthamine]', 'hepatic stage of P. berghei', 71.4);

Please look at the following molecule next.
*Q* May I ask what activity at 1 µM has been recorded for COc1cc(OC)cc(C(=O)OC2CN3Cc4cc5c(cc4C24C=CC(OC)CC34)OCO5)c1 (stereo not drawn) [29i, 11-O-(3,5-dimethoxybenzoyl)haemanthamine] ?
*A* 64
